- ASSAY PROCEDURE: Acute toxicity, up-and-down method
- COND: mouse, in vivo; iv (caudal vein), ddN male mice
Known LD50 of a selection of compounds

Use the examples below as a reference point.
CC(C)CC[C@H](NCCN1CCCC1)[C@H](O)c1ccccc1.Cl.Cl (racemic)
31.9 mg/kg
CC(C)CC[C@H](NCCN1CCCCC1)[C@H](O)c1ccccc1.Cl.Cl (racemic)
29.5 mg/kg
CC(C)CC[C@@H](NCCCN1CCCCC1)[C@H](O)c1ccccc1.Cl.Cl (racemic)
19 mg/kg
CC(C)C[C@H](NCCCN1CCCCC1)[C@H](O)c1ccccc1.Cl.Cl [Compound 17]
15.4 mg/kg
CC(C)C[C@@H](NCCCN1CCCCC1)[C@H](O)c1ccccc1.Cl.Cl (racemic)
28.8 mg/kg
CC(C)CC[C@H](NCCCN1CCCCC1)[C@H](O)c1ccccc1.Cl.Cl (racemic)
13.6 mg/kg
CCCC[C@H](NCCCN1CCCCC1)[C@H](O)c1ccccc1.Cl.Cl (racemic)
19.2 mg/kg
CCCCC[C@H](NCCCN1CCCCC1)[C@H](O)c1ccccc1.Cl.Cl (racemic)
22.1 mg/kg
CC(C)CC[C@H](NCCCN1CCCCCC1)[C@H](O)c1ccccc1.Cl.Cl (racemic)
12.8 mg/kg
CC(C)C[C@H](NCCCN1CCCCC1)[C@@H](O)c1ccccc1.Cl.Cl
28.4 mg/kg

INPUT: Field request: LD50 | item: CC(C)C[C@H](NCCCN1CCCCC1)[C@H](O)c1ccccc1.Cl.Cl (racemic) [Compound 15]
OUTPUT: 23.6 mg/kg

INPUT: Also check CC(C)CC[C@H](NCCCN1CCCC1)[C@H](O)c1ccccc1.Cl.Cl (racemic)
OUTPUT: 26.7 mg/kg

Each recorded value in this set is attributed to patent US5250546A.
